- Assay: Human HepG2 cell viability assay in 384 well format
- Format: toxicity, cell-based
- Parameters: dose 125 nL, time 70.5 hour; concentration not given beside the values
- Applied conditions: HepG2 cells, read-out: Inhibition
For each entry below, report its cytotoxicity at 70.5 h value.
Only the number, expressed in %, is required.

Exam item: // lookup cytotoxicity at 70.5 h for O=C(COCc1ccccc1)N1CCCC(n2cncn2)C1 (stereo unspecified)
Marked response: -20.7

Exam item: // repeat for O=C(c1cnn2c(-c3ccco3)ccnc12)N1CCCCCC1 and report
Marked response: -8.53

Exam item: // repeat for CCN(CC(=O)NC1(C)CCS(=O)(=O)C1)Cc1ccc(OC)c(F)c1 (stereo unspecified) and report
Marked response: -9.28

Exam item: // repeat for O=C(c1cc(-c2ccco2)nc2c(Cl)cccc12)N1CC[C@H]2CNC[C@H]21 and report
Marked response: 19.8

Exam item: // repeat for Cc1nc(CC(=O)N2CCCCC2Cn2cccn2)cs1 (stereo unspecified) and report
Marked response: 25.2

Exam item: // repeat for O=C(NC1CC1)NC(c1ccc(F)cc1)C1CC1 (stereo unspecified) and report
Marked response: -7.03

Exam item: // repeat for O=C(c1cccc(F)c1)N1C[C@H]2CN(Cc3ccccn3)C[C@H]2C1 and report
Marked response: -16

Exam item: // repeat for c1cncc(-n2cnnc2CCCN2CCOCC2)c1 and report
Marked response: 1.35

Exam item: // repeat for Cc1ccc(CN(CCCn2ccnc2)Cc2cnn(C)c2)s1 and report
Marked response: 25.9

Exam item: // repeat for CN1CCCC(C(=O)N2CCC(Oc3ncccn3)CC2)C1 (stereo unspecified) and report
Marked response: -4.47

Exam item: // repeat for CSCc1ccc(N2CCN(c3ccc(Cl)cn3)CC2)nc1 and report
Marked response: 3.63

====

For each entry below, report its cytotoxicity at 70.5 h value.
- Assay: Human HepG2 cell viability assay in 384 well format
- Type: toxicity, cell-based
- Parameters: dose 125 nL, time 70.5 hour; concentration not given beside the values
- Applied conditions: HepG2 cells, read-out: Inhibition
Only the number, expressed in %, is required.

Exam item: // lookup cytotoxicity at 70.5 h for NC1CCN(C(=O)c2c(F)cccc2Br)CC1
Marked response: -15.6

Exam item: // repeat for CCOC(=O)CC1(Nc2nc(C)nc3c2cnn3C)CCCCC1 and report
Marked response: -18

Exam item: // repeat for O=C(O)CCCNC(=O)N1CCc2c([nH]c3ccc(Cl)cc23)C1 and report
Marked response: -7.18

Exam item: // repeat for CCOC(=O)CN(CC(F)(F)F)C(=O)c1nc(C)n2ccccc12 and report
Marked response: -15.3

Exam item: // repeat for Cc1nc(N2CCOCC2)nc(C)c1NC(=O)c1ccco1 and report
Marked response: 3.55

Exam item: // repeat for CCCc1n[nH]c(C2CN(C(=O)c3cccc4cn[nH]c34)CCO2)n1 (centres undefined) and report
Marked response: -5.95

Exam item: // repeat for CSCCCNC(=O)Nc1cccc(-c2nccn2C)c1 and report
Marked response: 3.57

Exam item: // repeat for CSc1nc2ncc3c(=O)n(C)ccc3n2n1 and report
Marked response: -8.16

Exam item: // repeat for CN1CCN(c2ccc(NC(=O)c3cccs3)c(C(F)(F)F)c2)CC1 and report
Marked response: -9.41

Exam item: // repeat for CCn1c(CC2CCN(C(=O)c3cc(C(C)C)n[nH]3)CC2)n[nH]c1=O and report
Marked response: -6.21

Exam item: // repeat for Cc1cnc(CNC(=O)NCCOc2ncccc2Cl)s1 and report
Marked response: -3.34

Exam item: // repeat for CC(C)C1Nc2ccccc2C(=O)N1CC(=O)Nc1nc2c(s1)CCC2 (centres undefined) and report
Marked response: -15.3

Exam item: // repeat for Cc1noc(C(C)C)c1C(=O)N1CCC(n2cccn2)CC1 and report
Marked response: 13.2

Exam item: // repeat for COc1cc2nc(C)n(CC(=O)NCCC(C)C)c(=O)c2cc1OC and report
Marked response: -16.6

Exam item: // repeat for CCc1nc(C)c(C(=O)N2C[C@H]3CC[C@@H]2CN(S(=O)(=O)N(C)C)C3)s1 and report
Marked response: 8.88

Exam item: // repeat for Cc1nn(C)c(C)c1C1CCCN1C(=O)CCCNc1ncccn1 (centres undefined) and report
Marked response: -8.51

Exam item: // repeat for CN(C(=O)Cc1c[nH]c2ccccc12)C1CCN(c2ccccn2)CC1 and report
Marked response: 9.62

Exam item: // repeat for CCc1ccc(C(=O)N2CCCC(CNS(C)(=O)=O)C2)o1 (centres undefined) and report
Marked response: -10.7

Exam item: // repeat for Cc1nn(C)c(C)c1CN(Cc1cccn1-c1ccccn1)C(C)C and report
Marked response: 9.47

Exam item: // repeat for Cc1noc2nc(C3CC3)c(Cl)c(C(=O)O)c12 and report
Marked response: -7.07

Exam item: // repeat for O=C(Nc1ccccc1-c1ccccc1)NC1CCC2(C1)OCCO2 (centres undefined) and report
Marked response: 27.5

Exam item: // repeat for O=C(Cn1cc(-c2ccccc2)ncc1=O)Nc1ncc[nH]1 and report
Marked response: -12.3

Exam item: // repeat for Cc1cc(N2CCC(c3nnc(CN(C)C)n3C3CC3)CC2)ccn1 and report
Marked response: 18.3

Exam item: // repeat for CN(CC(=O)NC1(C#N)CCCC1)C1CCCN(c2cccnn2)C1 (centres undefined) and report
Marked response: -1.63
